Test: qHTS assay for small molecule agonists of the p53 signaling pathway - cell viability (AID 651633);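 also: p53RE-bla HCT reporter cells with a stable beta-lactamase p53 reporter; nearly all actives have a fitted effect of over 30% in size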
Conditions: p53RE-bla HCT-116 viability, ATP luminescence, 16 h; series mostly up to 83.3 µM
Inconclusive results are not listed. The source made the active and inactive calls. Calls follow the shape of the full dose curve.
MEASURED_QUANTITY: outcome

compound=OCCCO measured=inactive
compound=CO[C@@H]1[C@@H](O[C@@H]2O[C@H](C)[C@@H](O[C@H]3C[C@@](C)(O)[C@@H](O)[C@H](C)O3)[C@H](N(C)C)[C@H]2O)[C@@H](CC=O)C[C@@H](C)[C@@H](O[C@@H]2CC[C@H](N(C)C)[C@@H](C)O2)/C=C/C=C/C[C@@H](C)OC(=O)C[C@H]1OC(C)=O measured=inactive
compound="CCN(CCCCOC(=O)c1ccc(OC)c(OC)c1)C(C)Cc1ccc(OC)cc1 (configuration not stated)" measured=inactive
compound=NC(=O)c1ccccc1 measured=inactive
compound=CCCCOC(=O)CC#N measured=inactive
compound=COC(=O)c1cc(Cl)ccc1[N+](=O)[O-] measured=inactive
compound=CCc1ccc2c(c1)C(=O)c1ccccc1C2=O measured=inactive
compound=O=Cc1ccc(Cl)c([N+](=O)[O-])c1 measured=inactive
compound=CC(C)C/C=C(\C=O)c1ccccc1 measured=inactive
compound=CC(=O)OCC(=O)[C@@]1(O)CC[C@H]2[C@@H]3CCC4=CC(=O)C=C[C@]4(C)[C@@]3(F)[C@@H](O)C[C@@]21C measured=inactive
compound=CCCC(=O)OCCC(C)C measured=inactive
compound="CC(C)(C(=O)O)c1ccc(C(O)CCCN2CCC(C(O)(c3ccccc3)c3ccccc3)CC2)cc1 (configuration not stated)" measured=inactive
